# Test system: SK-MEL-28 melanoma
# experiment.description: NCI-60 one-dose screen, 48 h (100 = growth as untreated, 0 = no growth, -100 = all killed)
# test.settings: 10 µM unless noted
# Procedure: Growth inhibition of the SK-MEL-28 human tumor cell line is measured as a screen for anti-cancer activity. Cells are grown in 96 well plates and exposed to the test compound for 48 hours. Compounds are tested at a single concentration, which is 10^-5 M for most compounds. The reported endpoint is percent growth (GI% or GIPRCNT), where numbers from 0 - 100% represent growth inhibition, and numbers from -100% - 0 represent cell death. For example, a value of 40 represents 60% growth inhibition. […]
The panel holds about 83,000 compounds, 20% with a hit somewhere; the sample as a whole holds those more often.
Lab note: compare growth with 50%, writing met if less and not met if equal or more.

Example results:
compound	group
N/C(=N\C(N)=N\c1nc2ccccc2s1)c1ccc2ccccc2c1	not met
CC[C@]12C=CCN3CC[C@@]4(c5cc(NC(=O)COc6cc(O)c7c(=O)cc(-c8ccccc8)oc7c6)c(OC)cc5N(C)[C@H]4[C@@](O)(C(=O)OC)[C@@H]1OC(C)=O)[C@@H]32	met
NS(=O)(=O)c1ccc(Nc2nc(N/N=C/c3ccc(Cl)cc3)nc(Nc3ccccc3)n2)cc1	not met
CN(Cc1ccccc1)S(=O)(=O)/N=C1\NC(=O)NC1=C(Cl)Cl	met
CN1CCN(Cc2ccc(NC(=O)c3cncc(C#Cc4cnc5ccc(OCC6(C)COC6)nn45)c3)cc2C(F)(F)F)CC1	met
C#C[C@]1(O)CC[C@H]2[C@@H]3CC=C4c5sc(-c6ccc7c(c6)OCO7)nc5CC[C@]4(C)[C@H]3CC[C@@]21C	met

Challenge: Could you please tell me whether growth recorded for COc1ccc(NC(=O)CSc2nnc(-c3ccc4nc(-c5ccccc5)[nH]c4c3)o2)cc1 is less than 50%?
Response given: not met

Challenge: Could you please tell me whether growth recorded for Cc1ccc(-n2cc(/C=N/NC(=O)c3ccncc3)c(-c3ccc(S(C)(=O)=O)cc3)n2)cc1 is less than 50%?
Response given: not met

Challenge: Could you please tell me whether growth recorded for COc1cc2nc(Cl)nc(Nc3cccc(C4=Nc5c(N)nc(N)nc5NC(c5ccccc5)C4)c3)c2cc1OC (configuration not stated) is less than 50%?
Response given: not met

Challenge: Could you please tell me whether growth recorded for NS(=O)(=O)c1ccc(Nc2cc(-c3ccccc3)nc(SCC(=O)c3ccccc3)n2)cc1 is less than 50%?
Response given: not met

Challenge: Could you please tell me whether growth recorded for C#CCOc1ccc(/C=N\Nc2nc(-c3ccc(C)cc3)cs2)cc1OC is less than 50%?
Response given: not met

Challenge: Could you please tell me whether growth recorded for NS(=O)(=O)c1ccc(-n2cc(CN3CCNCC3)nn2)cc1 is less than 50%?
Response given: not met

Challenge: Could you please tell me whether growth recorded for Cn1cc(CNc2nc3ccc(OC/C(=C/F)CN)cc3o2)ccc1=O is less than 50%?
Response given: not met

Challenge: Could you please tell me whether growth recorded for COc1ccc(Cn2cc3c(c2-c2cc(OC)c(OC)c(OC)c2)CCc2c(CN4CCOCC4)noc2-3)cc1 is less than 50%?
Response given: not met

Challenge: Could you please tell me whether growth recorded for N#Cc1cnc2ccc(-c3cnc(N)nc3)cc2c1N1CCc2cc(F)c(Cl)cc21 is less than 50%?
Response given: met

----------
# System: SN12C renal
# experiment.description: NCI-60 one-dose screen, 48 h (100 = growth as untreated, 0 = no growth, -100 = all killed)
# test.settings: 10 µM unless noted
About 83,000 compounds went through this panel and 20% of them were active in at least one assay; those are over-represented in the sample as a whole. Active and inactive are the calls of the source. The calls were made as follows: active = growth percent below 10; inactive = the rest.
Assign growth to each entry below.

Recorded growth, per entry:
molecule	growth
CCOc1ccc(C(=O)Nc2ncc(Cc3ccc(F)cc3)s2)cc1	36% (inactive)
CC(=O)c1nnn(-c2c(C(=O)n3nc(C)cc3C)sc(=S)n2-c2ccccc2)c1C	103% (inactive)
COc1cc(-c2nc(SC(C)C)n(C(C)C)c(=O)c2C#N)ccc1OCc1ccccc1	16.2% (inactive)
Nc1nc(Nc2ccccc2SSc2ccccc2Nc2nc(N)nc(-c3ccccc3)n2)nc(-c2ccccc2)n1	77.8% (inactive)
O=C(Nc1ccc(Br)cc1)Nc1nc2ccc([N+](=O)[O-])cc2s1	4.21% (active)
NC(N)=Nc1ccc(Oc2cccc(Nc3ccc(Cl)cc3)c2)cn1	12.3% (inactive)

Would you mind listing growth for each of the following molecules?
1. Cc1c(F)cc(C(N)=O)cc1NCC(=O)Nc1ccc([N+](=O)[O-])cc1
2. CCCn1cnc2c(c1=N)C(c1ccc(F)cc1)c1sc3c(C)cccc3c1O2 (stereo not given)
3. CCNC(=O)Oc1ccc(/C(=C(/C)c2ccccc2)c2ccc(OCCN3CCCCCC3)cc2)cc1
4. CC(=O)C1=C(C)NC(NNC(N)=S)=NC1c1ccccc1 (stereo not given)

Response given:
1. 73.2% (inactive)
2. 61.9% (inactive)
3. 26.4% (inactive)
4. 83.8% (inactive)

----------
Assign growth to each entry below.
# Test system: UACC-257 melanoma
# experiment.description: NCI-60 one-dose screen, 48 h (100 = growth as untreated, 0 = no growth, -100 = all killed)
# test.settings: 10 µM unless noted
# Protocol: Cells are grown in 96 well plates and exposed to the test compound for 48 hours. Compounds are tested at a single concentration, which is 10^-5 M for most compounds. The reported endpoint is percent growth (GI% or GIPRCNT), where numbers from 0 - 100% represent growth inhibition, and numbers from -100% - 0 represent cell death. For example, a value of 40 represents 60% growth inhibition. A value of 0 means no net growth occurred over the course of the experiment. […]
This is part of a sample that, as a whole, favours compounds with a hit. Of some 83,000 tested, about 20% had one in any assay.
One number for each entry, in %.

Recorded growth, per entry:
compound	measured.target	growth [%]
O=C1/C(=C/C=C/c2ccco2)SC(=S)N1c1ccccc1	UACC-257 melanoma	83.2
CCc1cccc(NC(=O)CNc2cc(S(=O)(=O)N(C)C)cc(C)c2C)c1	UACC-257 melanoma	101
Cn1ccnc1C(=O)/C=C/c1ccc(CNC(=O)c2ccc(F)cc2)cc1	UACC-257 melanoma	80.6
C#Cc1nc(/C=C/C(=O)c2nccn2C)cs1	UACC-257 melanoma	-19

Would you mind listing growth for each of the following compounds?
1. CCCCCc1ccc(S(=O)(=O)Nc2cccc(-c3csc(NCCN4CCN(C)CC4)n3)c2)cc1
2. CCCCCc1ccc(S(=O)(=O)Nc2cc(-c3csc(NC(=O)CN4CCN(C)CC4)n3)ccc2N2CCN(C)CC2)cc1
3. Nc1ncc(-c2ccc3ncnc(N4CCc5cc(F)c(Cl)cc54)c3c2)cn1
4. Oc1cccc2ccc(-c3nnc(SCc4ccc(O)c5ncccc45)n3-c3ccccc3)nc12
5. Cc1cc(-c2ccc(Cl)cc2)n(Cc2nnc(SCC(=O)Nc3ccc(S(N)(=O)=O)cc3)n2-c2ccc([N+](=O)[O-])cc2)n1
6. Fc1ccc(-c2cc3nc(C(Cl)Cl)nc(-c4ccc(F)cc4)n3n2)cc1

Response given:
1. 38.1
2. -58.4
3. 50.6
4. -2.75
5. 98.5
6. 20.5

Would you mind listing growth for each of the following compounds?
1. CCNC(=O)N1CCc2cc(OC)c(OCCc3ccc(OC)cc3)cc2C1c1ccc(OC)cc1C (stereo not drawn)
2. CC1=NC2=NN3C(=NN2C(c2ccccc2)=C1)N=NC(c1ccc(Br)cc1)=C3c1ccc(Br)cc1
3. O=C(NCCN1CCCC1)c1ccc(-c2nc3ccc4[nH]ncc4c3c3c2CCCC3)cc1
4. O=C(Nc1ccc(F)c(F)c1)c1cc(-c2ccc(F)cc2F)ccc1O
5. CCCCCCCn1cc2c(N[C@H](C)c3ccccc3)ncnc2n1
6. COc1ccc(C(=O)c2c(N)c(C#N)cn2-c2ccccc2OC)cc1

Response given:
50.5
109
23.8
-9.01
110
66.9

Would you mind listing growth for each of the following compounds?
1. CCOC(=O)C(=O)/C(=C\c1ccc(Cl)cc1)C(=O)N1C(=S)NC(=O)C1CC(C)C (stereo not drawn)
2. Nc1ncc(-c2ccc3ncnc(N4CCc5cc(F)c(F)cc54)c3c2)cn1
3. CCCC(=O)NC(c1cccnc1)c1cc(C(C)(C)C)c2cccnc2c1O (stereo not drawn)
4. O=C(Nc1nonc1-c1ccccc1)c1ccc(C(F)(F)F)cc1
5. COc1ccccc1C(=O)Nc1cccc2c1C(=O)C(=O)C=C2
6. CCOC(=O)c1c(NC(=O)c2ccccc2C(F)(F)F)sc2c1CCC(=O)C2

Response given:
1: 105; 2: 45; 3: 4.98; 4: 77.8; 5: 106; 6: 98.9

Would you mind listing growth for each of the following compounds?
1. O=C(CN1CCN(c2cc(=O)n(-c3ccccc3)c3ccccc23)CC1)Nc1nc(-c2ccccc2)cs1
2. CN(C)CCNC(=O)c1ccc(-c2nc3ccc4[nH]ncc4c3c3c2COCC3)cc1
3. CCOC(=O)C(=O)CC(=O)N1C(=S)NC(=O)C1CC(C)C (stereo not drawn)
4. NC(=O)c1c(NC(=O)c2ccccc2C(F)(F)F)sc2c1CCC(=O)C2

Response given:
1. 48.5
2. 22.1
3. 102
4. 10.6
